Cited source: PubChem BioAssay (NCI)

# Test system: HCC-2998 colon
# protocol-summary: NCI tumour cell line growth inhibition, 48 h
measured-attribute: TGI

In: Answer with TGI of O=C1C2=Cc3ccccc3OC2(O)Oc2cc(O)ccc21 (stereo not given) measured for HCC-2998 colon.
Out: > 100 µM

In: # lookup: HCC-2998 colon TGI, key = "CN(C)CCCN(c1nc(C(Cl)(Cl)Cl)ns1)c1nc(C(Cl)(Cl)Cl)ns1"
Out: 3.31 µM

In: Report TGI under test system HCC-2998 colon for N#CC1=C(S)N(C2OC(CO)C(O)C(O)C2O)C(c2ccccc2)=CC1c1ccccc1 (stereo not given) .
Out: 96.4 µM

In: Determine reported TGI for COc1ccc(C(=O)N2CCc3c([nH]c4ccccc34)C2C(=O)O)o1 (stereo not given) ; test system: HCC-2998 colon.
Out: > 10 µM

In: State TGI (HCC-2998 colon) of "COc1ccc(-c2nn(-c3cccc(NC(=O)Nc4ccc(Cl)c(C(F)(F)F)c4)c3)cc2-c2ccncc2)cc1Cl" .
Out: 27 µM

In: Enter TGI (test system HCC-2998 colon) for CC(C)OCC(O)COc1ccc2ccc(=O)oc2c1 (stereo not given)
Out: > 100 µM

In: Quote TGI with test system HCC-2998 colon for "O=C(Cn1cc(-c2ccccc2)nn1)NC1CCCC1"
Out: > 100 µM

In: Give reported TGI for "CCOC(=O)c1sc2nc(SC)nc3c2c1N=CN3c1ccccc1Cl" (HCC-2998 colon)
Out: > 100 µM

In: Look up and report measured TGI (HCC-2998 colon) for the following molecule: "CC(=O)CCNc1ccc(-c2cc(-c3ccc(N(C)C)cc3)nc3ccc4ccccc4c23)cc1"
Out: > 100 µM

In: Report TGI on HCC-2998 colon for this entry: "O=c1c2cc([N+](=O)[O-])ccc2n(Cc2ccccc2)n1Cc1ccccc1"
Out: > 31.6 µM

* * *

# System: SF-268 CNS
# protocol-summary: NCI tumour cell line growth inhibition, 48 h
measured-attribute: TGI

In: Using the record for "Cn1cccc1-c1cc(-c2cccs2)[nH]c(=O)c1C#N" , state its measured TGI.
Out: > 100 µM

In: Answer with the recorded TGI for the compound listed here: "CC#CS(=O)(=O)c1ccccc1"
Out: 35.2 µM

In: Please look at this compound and report its TGI: C=CCNC(=S)N1c2ccccc2NC(=O)CC1C (stereo unspecified)
Out: > 100 µM

In: Give the value of TGI reported for the following: Cc1ccc(OCC2OC(C#N)C(Oc3ccc(C)cc3)C2Oc2ccc(C)cc2)cc1 (stereo unspecified)
Out: > 100 µM

In: Provide TGI value for the following compound: C=C(C)CC1=C(OCC)C(OC)(OCC)C1=O (stereo unspecified)
Out: > 100 µM

In: Return reported TGI. Input compound: CC(NC(=O)C(N)Cc1ccc(O)cn1)C(=O)O (stereo unspecified)
Out: > 100 µM

* * *

# Test system: HOP-62 NSCLC
# protocol-summary: NCI tumour cell line growth inhibition, 48 h
measured-attribute: TGI

In: For the compound "O=C(Cn1cc(-c2ccccc2)nn1)NC1CCCC1" , report TGI.
Out: > 100 µM

In: Supply measured TGI of CC1(C)CC(=O)C2=C(C1)NC(SSC1=C(C#N)C(c3ccc(F)cc3)C3=C(CC(C)(C)CC3=O)N1)=C(C#N)C2c1ccc(F)cc1 (stereo unspecified) in your reply.
Out: > 150 µg/mL

In: Assign TGI to the following record: "O=C(O)c1ccc2c(c1Nc1ccccc1)C(=O)c1ccccc1C2=O"
Out: > 100 µM

In: Give reported TGI value for "COc1ccc(/C(C)=C(\c2ccc(Cl)cc2)c2ccc(OCCN3CCCC3)cc2)cc1F"
Out: 8.22 µM

In: Give TGI for "N#CC(=S)Nc1ccc(Cl)c(Cl)c1"
Out: 99.5 µM

In: Tell me measured TGI for "COc1ccc(-c2nn(-c3cccc(NC(=O)Nc4ccc(Cl)c(C(F)(F)F)c4)c3)cc2-c2ccncc2)cc1Cl" please.
Out: 17.3 µM

In: Given the compound CC(=O)Nc1ccc(C(=O)NN2C(=O)C(Cl)C2c2cc(Br)ccc2O)cc1 (stereo unspecified) , write its reported TGI.
Out: > 100 µM

In: For the compound CCOC(=O)C1CCn2c(nc3c2c(=O)n(C)c(=O)n3C)S1 (stereo unspecified) , give its reported TGI.
Out: > 100 µM

In: Input "CCOC(=O)c1c(-c2ccccc2)[n+](=O)c2ccc(Cl)cc2n1[O-]" , output reported TGI.
Out: 20.8 µM

In: Supply recorded TGI for COc1c2c(cc3c1C(O)N1CC[C@]34[C@H]3O[C@H]3[C@H](OC)C[C@@H]14)OCO2 (stereo partly specified) here.
Out: > 100 µM

In: Input "COc1cc(C#N)cc(OC)c1OCCOCCOc1c(OC)cc(C#N)cc1OC" , output reported TGI.
Out: > 100 µM

In: Return reported TGI. Input compound: "Cc1ccc([N+](=O)[O-])cc1NC(=O)C(=O)Cc1occc(=O)c1O"
Out: > 100 µM

In: Note TGI for the compound shown: CC(C)(C)[Si](C)(C)OCCCCC1CC2(S(=O)(=O)C3=CC=C=C=C3)ON1CC2S(=O)(=O)c1ccccc1 (stereo unspecified)
Out: > 100 µM

In: Specify measured TGI for "S=c1nc2[nH]ncc2c(N/N=C/c2ccccc2)[nH]1" .
Out: > 100 µM

In: Respond only with TGI recorded for "COc1ccc(/C=C2\CN(Cc3cn(CCCNc4ccnc5cc(Cl)ccc45)nn3)C/C(=C\c3ccc(OC)c(OC)c3)C2=O)cc1OC"
Out: 4.54 µM

In: Respond only with TGI recorded for "NNC(=O)c1ccccc1Nc1ccccc1C(=O)NN"
Out: > 100 µM

In: Identify measured TGI corresponding to CC(C)OCC(O)COc1ccc2ccc(=O)oc2c1 (stereo unspecified)
Out: > 100 µM

In: Identify measured TGI corresponding to "ClCc1ccc(-c2ccc(Cn3cnc4c(Cl)nc(Cl)nc43)cc2)cc1"
Out: 4 µM

In: Retrieve TGI measured for "COc1[nH]c(C(Cl)(Cl)Cl)c(Cl)c(=O)c1Cl" and print it.
Out: > 100 µM

In: Input "CN(C)CCCN(c1nc(C(Cl)(Cl)Cl)ns1)c1nc(C(Cl)(Cl)Cl)ns1" , output reported TGI.
Out: 3.07 µM

In: Look up and state reported TGI for "OCCOCn1cc(Cn2ncc3c(SCc4ccccc4)ncnc32)nn1"
Out: > 100 µM
